Documented Ratio across a set of compounds
System: Rattus norvegicus
experiment_summary: Ratio of total cholesterol level in serum to HDL level in serum in Triton-X-100-induced hyperlipidemia Wistar albino rat model at 250 mg/kg, po qd for 7 days
Format: functional
Enter a number only.

Guide cases for Ratio, answers given:
1. NS(=O)(=O)c1ccc(/N=C/c2c(-c3ccc(Cl)cc3)nc3sc(-c4ccc5c(c4)OCO5)nn23)cc1 | 3
2. O=C(N/N=C/c1c(-c2ccc(Cl)cc2)nc2sc(-c3ccc4c(c3)OCO4)nn12)c1ccccc1 | 3.6

Ask: Item under review: COc1ccc(/N=C/c2c(-c3ccc(Cl)cc3)nc3sc(-c4ccc5c(c4)OCO5)nn23)cc1 . Reported Ratio?
Reply: 3.44

Ask: Item under review: O=C(O)c1ccc(/N=C/c2c(-c3ccc(Cl)cc3)nc3sc(-c4ccc5c(c4)OCO5)nn23)cc1 . Reported Ratio?
Reply: 2.76

Ask: Item under review: C(=N\c1ccccc1)/c1c(-c2ccccc2)nc2sc(-c3ccc4c(c3)OCO4)nn12 . Reported Ratio?
Reply: 4.7

Ask: Item under review: Fc1ccc(/N=C/c2c(-c3ccc(Cl)cc3)nc3sc(-c4ccc5c(c4)OCO5)nn23)cc1Cl . Reported Ratio?
Reply: 2.97

Ask: Item under review: Brc1ccc(/N=C/c2c(-c3ccccc3)nc3sc(-c4ccc5c(c4)OCO5)nn23)cc1 . Reported Ratio?
Reply: 4.55

Ask: Item under review: O=[N+]([O-])c1ccc(/N=C/c2c(-c3ccc(Cl)cc3)nc3sc(-c4ccc5c(c4)OCO5)nn23)cc1 . Reported Ratio?
Reply: 3.34
